Observed IC50, system GRK2 (Homo sapiens, UniProt P25098).

Sample answers from the record:
| ENTRY SMILES | IC50 |
| --- | --- |
| COc1ccc([C@@H](C)NC(=O)/C(C#N)=C/c2c[nH]c3ncc(OCc4cc(C)nn4C)cc23)cc1OC | > 10 µM |
| COc1ccc([C@@H](C)NC(=O)/C=C/c2c[nH]c3ncc(-c4ccccc4CN4CCOCC4)cc23)cc1OC | > 10 µM |
| COc1ccc([C@@H](C)NC(=O)/C(C#N)=C/c2c[nH]c3ncc(-c4ccccc4OC)cc23)cc1OC | > 10 µM |
| N#C/C(=C\c1c[nH]c2ncccc12)C(=O)NCc1ccccc1C#N | 1 to 10 µM |
| COc1ccc([C@@H](C)NC(=O)/C(C#N)=C/c2c[nH]c3ncc(-c4cn[nH]c4)cc23)cc1OC | 1 to 10 µM |

Request: Fill: IC50 (GRK2 (Homo sapiens, UniProt P25098)) for this molecule COc1ccc([C@@H](C)NC(=O)/C=C/c2c[nH]c3ncc(-c4cccc(CN(C)C)c4)cc23)cc1OC
Result: 1 to 10 µM

---

Below is a list of entries, each paired with its recorded IC50 value.
# MEASURED ON: GRK2 (Homo sapiens, UniProt P25098)
# Construct: purchased Thermo Scientific
# ASSAY PROTOCOL: Lance Kinase Activity Assay, GRK2
# TEST PARAMETERS: biochemical Lance kinase activity assay; class symbols A-F; read-out: GRK2 LANCE Assay (IC-50)

Consider the worked cases shown below.
| MOLECULE | MEASURED ON | REPORTED MEASUREMENT |
| --- | --- | --- |
| CN(C)c1ccc(CNC(=O)/C(C#N)=C/c2c[nH]c3ncccc23)cc1 [Example 24] | GRK2 (Homo sapiens, UniProt P25098) | > 10000 nM |
| COc1ccc([C@@H](C)NC(=O)/C(C#N)=C/c2c[nH]c3ncc(-c4ccc(CCN(C)C)cc4)cc23)cc1OC [Example 134] | GRK2 (Homo sapiens, UniProt P25098) | 1000 to 10000 nM |
| COc1ccc([C@@H](C)NC(=O)/C(C#N)=C/c2c[nH]c3ncccc23)cc1 [Example 19] | GRK2 (Homo sapiens, UniProt P25098) | 1000 to 10000 nM |
| COc1ccc([C@@H](C)NC(=O)/C=C/c2c[nH]c3ncc(-c4cnn(C)c4C#N)cc23)cc1OC [Example 211] | GRK2 (Homo sapiens, UniProt P25098) | 500 to 1000 nM |
| COc1ccc([C@@H](C)NC(=O)/C(C#N)=C/c2c[nH]c3nc(Br)ccc23)cc1OC [Example 90] | GRK2 (Homo sapiens, UniProt P25098) | > 10000 nM |

Request: Please report IC50 for the following molecule: COc1ccc([C@@H](C)NC(=O)/C=C/c2c[nH]c3ncc(-c4ccccc4S(C)(=O)=O)cc23)cc1OC [Example 222]
Result: > 10000 nM

Request: Provide only the value of recorded IC50 for C[C@@H](NC(=O)/C(C#N)=C/c1c[nH]c2ncccc12)c1ccc(F)cc1 [Example 69]
Result: 50 to 100 nM

Request: Given COc1ccc([C@@H](C)NC(=O)/C(C#N)=C/c2c[nH]c3ncc(-c4cnn(CC(C)O)c4)cc23)cc1OC (stereo partly shown) [Example 157] , respond with its IC50.
Result: 1000 to 10000 nM

Request: Please give the documented IC50 of COc1ccc([C@@H](C)NC(=O)/C(C#N)=C/c2c[nH]c3ncc(-c4ccc(N(C)C)nc4)cc23)cc1OC [Example 147]
Result: 1000 to 10000 nM

Request: Give the reported IC50 for this molecule. COc1ccc([C@@H](C)NC(=O)/C=C/c2c[nH]c3ncc(-c4cccc(NS(C)(=O)=O)c4)cc23)cc1OC [Example 193]
Result: 1000 to 10000 nM

---

# MEASURED ON: GRK2 (Homo sapiens, UniProt P25098)
METRIC NAME: IC50

Some solved entries appear below for comparison.
| ENTRY SMILES | IC50 |
| --- | --- |
| COc1ccc([C@@H](C)NC(=O)/C(C#N)=C/c2c[nH]c3ncc(-c4ccc(C(F)(F)F)cc4)cc23)cc1OC | > 10 µM |
| COc1ccc(-c2cnc3[nH]cc(/C=C(/C#N)C(=O)N[C@H](C)c4ccc(OC)c(OC)c4)c3c2)cc1OC | > 10 µM |
| Cc1nn(C)c2ccc([C@@H](C)NC(=O)/C(C#N)=C/c3c[nH]c4ncc(-c5cnn(C)c5)cc34)cc12 | > 10 µM |
| COc1ccc([C@@H](C)NC(=O)/C=C/c2c[nH]c3ncc(-c4cccnc4)cc23)cc1OC | 1 to 10 µM |
| COc1ccc([C@@H](C)NC(=O)/C(C#N)=C/c2c[nH]c3ncc(-c4cccc(OCCCN(C)C)c4)cc23)cc1OC | 1 to 10 µM |

Then this molecule:
Request: Find IC50 for N#C/C(=C\c1c[nH]c2ncccc12)C(=O)N[C@@H](c1ccccc1)C(F)(F)F on GRK2 (Homo sapiens, UniProt P25098) and write it down.
Result: 1 to 10 µM

---

# MEASURED ON: GRK2 (Homo sapiens, UniProt P25098)
# Sequence (P25098 1-689): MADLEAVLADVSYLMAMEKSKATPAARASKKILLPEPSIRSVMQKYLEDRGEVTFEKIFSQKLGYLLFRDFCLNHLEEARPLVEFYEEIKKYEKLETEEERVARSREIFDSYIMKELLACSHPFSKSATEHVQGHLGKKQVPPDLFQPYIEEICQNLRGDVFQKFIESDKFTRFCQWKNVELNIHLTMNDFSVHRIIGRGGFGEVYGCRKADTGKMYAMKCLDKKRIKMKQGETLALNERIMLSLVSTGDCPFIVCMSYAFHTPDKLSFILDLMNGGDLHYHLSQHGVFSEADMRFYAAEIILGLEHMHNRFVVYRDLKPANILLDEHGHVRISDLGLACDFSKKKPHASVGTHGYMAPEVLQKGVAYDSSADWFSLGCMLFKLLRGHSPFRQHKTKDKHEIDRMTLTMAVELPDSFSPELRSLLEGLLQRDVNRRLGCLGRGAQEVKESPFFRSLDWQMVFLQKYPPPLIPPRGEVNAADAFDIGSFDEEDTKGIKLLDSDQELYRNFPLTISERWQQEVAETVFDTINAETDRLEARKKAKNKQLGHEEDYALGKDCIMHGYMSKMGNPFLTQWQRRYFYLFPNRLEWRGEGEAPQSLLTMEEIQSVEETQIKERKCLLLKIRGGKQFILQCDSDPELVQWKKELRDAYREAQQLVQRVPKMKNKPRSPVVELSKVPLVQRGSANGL
METRIC NAME: IC50

Example results:
| ENTRY SMILES | REPORTED MEASUREMENT |
| --- | --- |
| COc1ccc([C@@H](CO)NC(=O)/C=C/c2c[nH]c3ncc(C)cc23)cc1OC | 1000 to 10000 nM |
| COc1ccc([C@@H](C)NC(=O)/C=C/c2c[nH]c3nccc(-c4ccc(N5CCN(C(C)=O)CC5)cc4)c23)cc1OC | > 10000 nM |
| COc1ccc([C@@H](C)NC(=O)/C(C#N)=C/c2c[nH]c3ncc(-c4ccc(OCCCN(C)C)cc4)cc23)cc1OC | 500 to 1000 nM |
| N#C/C(=C\c1c[nH]c2ncccc12)C(=O)NCc1cccc(Cl)c1 | 100 to 500 nM |
| COc1ccc([C@@H](C)NC(=O)/C=C/c2c[nH]c3ncc(-c4cccc(N(C)C)c4)cc23)cc1OC | > 10000 nM |

Request: Check the records and state IC50 for N#C/C(=C\c1c[nH]c2ncccc12)C(=O)NCc1ccc(C(F)(F)F)cc1
Result: 1000 to 10000 nM

Request: Give me measured IC50, please, for this compound: COc1ccc([C@@H](C)NC(=O)/C(C#N)=C/c2c[nH]c3ncc(C(=O)N4CCOCC4)cc23)cc1OC
Result: > 10000 nM

Request: Using the record for COc1ccc([C@@H](C)NC(=O)/C(C#N)=C/c2c[nH]c3ncc(C)cc23)cc1OC , state its measured IC50.
Result: 500 to 1000 nM

Request: Return IC50 (reported value) for this compound: COc1ccc([C@@H](C)NC(=O)/C(C#N)=C/c2c[nH]c3ncc(-c4ccc(C(N)=O)cc4)cc23)cc1OC
Result: > 10000 nM

Request: Could you please provide reported IC50 for C[C@@H](NC(=O)/C=C/c1c[nH]c2ncc(-c3cnn(C)c3)cc12)c1ccc(F)c(F)c1 ? Thanks!
Result: 100 to 500 nM

Request: Give the measured IC50 for COc1ccc([C@@H](C)NC(=O)/C=C/c2c[nH]c3ncc(Br)cc23)cc1OC
Result: 1000 to 10000 nM

Request: Fill in IC50 for record COc1ccc([C@@H](C)NC(=O)/C=C/c2c[nH]c3ncc(-c4c(C)nn(C)c4C)cc23)cc1OC
Result: > 10000 nM
